- testMethodNotes: ST_JUDE: Cytotoxicity using luciferase to measure ATP as an indicator of the viability of human Burkitt''s lymphoma lymphoblast cells (Raji)
- Format: toxicity, cell-based
pEC50: −log10 of the molar value.
quantity: pEC50

Inquiry: Fill in: pEC50 of CC(C)(C)c1ccc(S(=O)(=O)NC2=C/C(=N\c3ccc(O)cc3)C(=O)c3ccccc32)cc1 is ___
Reply text: 5.39

Inquiry: Can you handle CCOc1ccccc1N1CCN(Cc2cc(Br)cc(OC)c2O)CC1 next?
Reply text: < 4.43

Inquiry: Can you handle CCCCCCn1c(=N)n(CC(O)COc2ccccc2C)c2ccccc21 (stereo unspecified) next?
Reply text: 4.90

Inquiry: Can you handle CCN(CC)CCCOC(=O)c1c(C)oc2cc3c(C(=O)OCCCN(CC)CC)c(C)oc3cc12 next?
Reply text: 4.63

Inquiry: Can you handle CSc1ccc2ccccc2[n+]1C next?
Reply text: < 4.43

Inquiry: Can you handle CCc1ccc(S(=O)(=O)NC2=C/C(=N\c3ccccc3)C(=O)c3ccccc32)cc1 next?
Reply text: 5.58

Inquiry: Can you handle CC(C)c1ccc(NC(=O)/C=C/c2ccccc2Cl)cc1 next?
Reply text: < 4.39

Inquiry: Can you handle O=C(Nc1cccc(Cl)c1N1CCOCC1)C(Cl)(Cl)Cl next?
Reply text: < 4.52

Inquiry: Can you handle COc1ccc(C2CC(=O)C3=C(C2)NC(=O)CC3c2ccc(Br)cc2)cc1OC (stereo unspecified) next?
Reply text: < 4.32

Inquiry: Can you handle CC(C)(C)c1cc(C2C(C#N)=C(N)OC3=C2C(=O)CCC3)cc(C(C)(C)C)c1O (stereo unspecified) next?
Reply text: 5.52

Inquiry: Can you handle COc1cccc(NC(=O)C2c3ccccc3C(=O)N(CC(C)C)C2c2cccs2)c1 (stereo unspecified) next?
Reply text: < 4.39

Inquiry: Can you handle CCOc1cc(C2CC(=O)NC3=C2C(=O)CC(c2ccc(OC)cc2)C3)cc(Cl)c1O (stereo unspecified) next?
Reply text: < 4.35

Inquiry: Can you handle CC(=O)c1cccc(NC(=O)C2c3ccccc3C(=O)N(CC(C)C)C2c2cccs2)c1 (stereo unspecified) next?
Reply text: < 4.36

Inquiry: Can you handle Clc1ccc(Nc2nc(NCc3ccco3)c3ccccc3n2)cc1 next?
Reply text: < 4.33

Inquiry: Can you handle CCO/C(O)=C1\C(C)=NC2=C(C(=O)CC(c3ccc(OC)c(OC)c3)C2)C1c1ccccc1Cl (stereo unspecified) next?
Reply text: < 4.35

Inquiry: Can you handle CC(C)CN1C(=O)c2ccccc2C(C(=O)Nc2cccc(C#N)c2)C1c1cccs1 (stereo unspecified) next?
Reply text: < 4.33

Inquiry: Can you handle COc1ccc(C2CC(=O)NC3=C2C(=O)CC(c2ccc(F)cc2)C3)cc1OC (stereo unspecified) next?
Reply text: < 4.38

Inquiry: Can you handle Cn1c(=O)c2c(-c3ccc(C(C)(C)C)cc3)n(-c3cc(Cl)ccc3O)cc2n(C)c1=O next?
Reply text: < 4.40

Inquiry: Can you handle Oc1ccc(C2NCc3ccccc3-n3cccc32)cc1Cl (stereo unspecified) next?
Reply text: < 4.34

Inquiry: Can you handle Cc1ccc(C)c(N2CCN(Cc3cc(Br)ccc3O)CC2)c1 next?
Reply text: < 4.45

Inquiry: Can you handle Cc1ccc(C)c(NC(=O)CC2C(=O)N(c3ccccc3)C(=S)N2Cc2ccco2)c1 (stereo unspecified) next?
Reply text: 4.39
